TARGET_ENTITY: T1, PSMA Fab (006 PSMA Fab) (biotinylated (site not stated))
T1 construct: also called Anti-PSMA Fab
ASSAY_COMMENT: clonal phage ELISA on plate-captured biotinylated PSMA Fab pre-incubated with PSMA antigen as competitor, anti-M13 HRP detection
Friendly reminder: Phage binding ELISA signal, Anti-PSMA Fab in presence of PSMA below 0.08 is yes, at or above is no.

Query: I wonder whether FWQRCVPTWMCEGF [Phage-3835] has Phage binding ELISA signal, Anti-PSMA Fab in presence of PSMA below 0.08. Can you tell?
Result: no

These measurements were taken from patent US20260242478A1.
